- target under test: TsTS (Trichinella spiralis)
- Sequence (Q9NDD3 entry or part of it): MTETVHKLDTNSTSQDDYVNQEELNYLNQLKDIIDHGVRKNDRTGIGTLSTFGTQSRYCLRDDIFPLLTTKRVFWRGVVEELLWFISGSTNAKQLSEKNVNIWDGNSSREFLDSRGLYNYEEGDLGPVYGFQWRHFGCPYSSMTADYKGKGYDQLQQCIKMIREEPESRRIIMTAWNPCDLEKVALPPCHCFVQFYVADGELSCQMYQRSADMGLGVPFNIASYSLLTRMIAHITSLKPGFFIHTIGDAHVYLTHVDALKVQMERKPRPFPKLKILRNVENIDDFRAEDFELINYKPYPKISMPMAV
- assay info: Inhibition of TS-catalyzed reaction (tritium release from [5-3H]dUMP)
- Format: biochemical, T. spiralis
- run conditions: IC50 Assessment, 20 µM dUMP, 250 µM meTHF
readout kind: IC50

compound="CC(C)=CCc1c(O)ccc2c1OC(c1ccccc1)CC2=O (racemic) [(±)-7-Hydro-xy-8-C-prenyl flavanone]" readout_kind=IC50 value_measured="> 0.1 mM"
compound="CC12CCC3C(C1)c1c(cc(O)c(C(=O)c4ccccc4)c1OC3(C)C)O2 (stereo not drawn)" readout_kind=IC50 value_measured="> 1 mM"
compound=O=C(CCc1ccc(O)cc1)c1c(O)cc(O)cc1O readout_kind=IC50 value_measured="> 1 mM"
compound="COc1c(C2(O)COc3cc(O)cc(O)c3C2=O)ccc2c1C=CC(C)(C)O2 (stereo not drawn)" readout_kind=IC50 value_measured="> 0.1 mM"
compound=CC1=C[C@]2(O)C(=O)[C@H](C)C[C@@H]3[C@H](CC[C@](C)(O)C[C@H]2C1=O)C3(C)C readout_kind=IC50 value_measured="> 1 mM"
compound="O=C(OCC1=C[C@@H](O)[C@@H]2C=CO[C@@H](O[C@@H]3O[C@H](CO)[C@@H](O)[C@H](O)[C@H]3O)[C@H]12)c1ccc(O)cc1 [Agnuside (8), Agnuside]" readout_kind=IC50 value_measured="> 1 mM"
compound=COc1c(O)cc2oc3ccccc3c(=O)c2c1O readout_kind=IC50 value_measured="> 0.1 mM"
compound=CC(=O)Oc1c(O)cc(-c2oc3cc(O)cc(O)c3c(=O)c2O)cc1O readout_kind=IC50 value_measured="> 1 mM"
compound="CC1(C)CCc2cc3c(cc2O1)OC(c1ccccc1)CC3=O (stereo not drawn)" readout_kind=IC50 value_measured="> 1 mM"
compound=COc1cc(/C=C/C(=O)CC(=O)/C=C/c2ccc(O)c(OC)c2)ccc1O readout_kind=IC50 value_measured="> 0.5 mM"
compound="O=C1c2c(O)cccc2C([C@@H]2O[C@H](CO)[C@@H](O)[C@H](O)[C@H]2O)c2cc(CO)cc(O)c21 (stereo partly drawn)" readout_kind=IC50 value_measured="> 1 mM"
compound=O=C(/C=C/c1ccc(O)c(O)c1)O[C@@H]1C[C@](O)(C(=O)O)C[C@@H](O)[C@H]1O readout_kind=IC50 value_measured="> 1 mM"

====

- target under test: mTS (Mus musculus)
- Construct: made in house
- assay info: Inhibition of TS-catalyzed reaction (tritium release from [5-3H]dUMP)
- Format: biochemical
- run conditions: compound 1000 µM; 20 µM dUMP, 250 µM meTHF; read-out: % Remaining Activity
readout kind: remaining activity at 1000 µM (%)

compound="O=C(OCC1=C[C@@H](O)[C@@H]2C=CO[C@@H](O[C@@H]3O[C@H](CO)[C@@H](O)[C@H](O)[C@H]3O)[C@H]12)c1ccc(O)cc1 [Agnuside (8), Agnuside]" display_unit=% censoring_qualifier== value_measured=72
compound="COc1cc(/C=C/C(=O)O[C@H]2[C@H](O[C@@H]3O[C@@H](C)[C@H](O)[C@@H](O)[C@H]3O)[C@@H](O)[C@H](OCCc3ccc(O)c(O)c3)O[C@@H]2CO)ccc1O [Leucosceptoside A (13), Leucosceptoside A]" display_unit=% censoring_qualifier== value_measured=77
compound="CC1(C)CCc2cc3c(cc2O1)OC(c1ccccc1)CC3=O (centres unmarked)" display_unit=% censoring_qualifier== value_measured=10
compound="CC(C)=CCc1c(O)ccc2c1OC(c1ccccc1)CC2=O (racemic) [(±)-7-Hydro-xy-8-C-prenyl flavanone]" display_unit=% censoring_qualifier== value_measured=2
compound="COc1c(C2(O)COc3cc(O)cc(O)c3C2=O)ccc2c1C=CC(C)(C)O2 (centres unmarked)" display_unit=% censoring_qualifier== value_measured=10
compound=O=C(CCc1ccc(O)cc1)c1c(O)cc(O)cc1O display_unit=% censoring_qualifier== value_measured=45
compound=COc1c(O)cc2oc(-c3ccccc3)c(O)c(=O)c2c1O display_unit=% censoring_qualifier=> value_measured=100
compound=CC(=O)Oc1c(O)cc(-c2oc3cc(O)cc(O)c3c(=O)c2O)cc1O display_unit=% censoring_qualifier== value_measured=49
compound=O=C(/C=C/c1ccc(O)c(O)c1)O[C@@H]1C[C@](O)(C(=O)O)C[C@@H](O)[C@H]1O display_unit=% censoring_qualifier== value_measured=83
compound="CC12CCC3C(C1)c1c(cc(O)c(C(=O)c4ccccc4)c1OC3(C)C)O2 (centres unmarked)" display_unit=% censoring_qualifier== value_measured=62
compound="O=C1c2c(O)cccc2C([C@@H]2O[C@H](CO)[C@@H](O)[C@H](O)[C@H]2O)c2cc(CO)cc(O)c21 (some centres unmarked)" display_unit=% censoring_qualifier== value_measured=95

====

- target under test: CeTS (Caenorhabditis elegans)
- Sequence (Q9Y052 1-315): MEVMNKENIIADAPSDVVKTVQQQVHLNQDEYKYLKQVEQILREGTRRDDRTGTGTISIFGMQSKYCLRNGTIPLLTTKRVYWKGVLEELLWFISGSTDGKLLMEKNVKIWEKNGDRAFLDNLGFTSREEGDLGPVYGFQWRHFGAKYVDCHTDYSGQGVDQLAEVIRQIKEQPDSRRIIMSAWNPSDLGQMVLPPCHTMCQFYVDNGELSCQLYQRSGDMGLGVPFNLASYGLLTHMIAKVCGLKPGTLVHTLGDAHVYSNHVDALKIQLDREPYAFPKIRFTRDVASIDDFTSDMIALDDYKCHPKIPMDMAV
- assay info: Inhibition of TS-catalyzed reaction (tritium release from [5-3H]dUMP)
- Assay type: biochemical, C. elegans
- run conditions: IC50 Assessment, 20 µM dUMP, 250 µM meTHF
readout kind: IC50

compound=COc1c(O)cc2oc3ccccc3c(=O)c2c1O value_measured="> 1 mM"
compound=CC1=C[C@]2(O)C(=O)[C@H](C)C[C@@H]3[C@H](CC[C@](C)(O)C[C@H]2C1=O)C3(C)C value_measured="> 1 mM"
compound="CC12CCC3C(C1)c1c(cc(O)c(C(=O)c4ccccc4)c1OC3(C)C)O2 (stereo not drawn)" value_measured="> 0.1 mM"

====

- target under test: mTS (Mus musculus, UniProt P07607)
- Construct: made in house
- Sequence (P07607 whole entry): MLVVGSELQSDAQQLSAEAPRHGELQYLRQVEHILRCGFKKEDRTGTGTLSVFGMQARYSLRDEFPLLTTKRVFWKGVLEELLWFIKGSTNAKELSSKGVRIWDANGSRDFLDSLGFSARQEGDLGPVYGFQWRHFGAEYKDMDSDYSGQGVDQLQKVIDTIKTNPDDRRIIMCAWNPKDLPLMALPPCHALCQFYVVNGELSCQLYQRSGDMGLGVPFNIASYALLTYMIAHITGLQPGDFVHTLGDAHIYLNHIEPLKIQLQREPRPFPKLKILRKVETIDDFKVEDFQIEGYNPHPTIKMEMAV
- assay info: Inhibition of TS-catalyzed reaction (tritium release from [5-3H]dUMP)
- Format: biochemical
- run conditions: 20 µM dUMP, 50 µM meTHF; read-out: IC50 Assessment
readout kind: IC50

compound="COc1ccc2oc3ccccc3c(=O)c2c1 [2-OMe-Xanthone (20), 2-OMe-Xanthone]" value_measured="> 1000 µM"
compound="COc1ccc2oc3cccc(O)c3c(=O)c2c1 [1-OH-7-OMe-Xanthone (19), 1-OH-7-OMe-Xanthone]" value_measured="> 1000 µM"

====

- target under test: mTS (Mus musculus, UniProt P07607)
- Construct: made in house
- assay info: Inhibition of TS-catalyzed reaction (tritium release from [5-3H]dUMP)
- Assay type: biochemical
- run conditions: compound 100 µM; 20 µM dUMP, 250 µM meTHF; read-out: % Remaining Activity
Reported remaining activity at 100 µM values are given for each entry in this list.
readout kind: remaining activity at 100 µM

compound="CC(C)=CCc1c(O)ccc2c1OC(c1ccccc1)CC2=O (racemic) [(±)-7-Hydro-xy-8-C-prenyl flavanone]" value_measured=71%
compound=CC(=O)Oc1c(O)cc(-c2oc3cc(O)cc(O)c3c(=O)c2O)cc1O value_measured=61%
compound="COc1c(C2(O)COc3cc(O)cc(O)c3C2=O)ccc2c1C=CC(C)(C)O2 (stereo not drawn)" value_measured=75%
compound="CC1(C)CCc2cc3c(cc2O1)OC(c1ccccc1)CC3=O (stereo not drawn)" value_measured=91%
compound=C=CC(C)(C)c1c(O)cc2oc3c(O)c(O)cc(CC=C(C)C)c3c(=O)c2c1O value_measured=40%
compound=O=C(CCc1ccc(O)cc1)c1c(O)cc(O)cc1O value_measured=78%

====

- target under test: CeTS (Caenorhabditis elegans, UniProt Q9Y052)
- assay info: Inhibition of TS-catalyzed reaction (tritium release from [5-3H]dUMP)
- Assay type: biochemical, C. elegans
- run conditions: compound 100 µM; 20 µM dUMP, 250 µM meTHF; read-out: % Remaining Activity
# key: entry, value: remaining activity at 100 µM
readout kind: remaining activity at 100 µM (%)

molecule="CC1(C)CCc2cc3c(cc2O1)OC(c1ccccc1)CC3=O (centres unmarked) [6-Chromane-O-7-flavanone (11), 6-Chromane-O-7-flavanone]" value_measured=24
molecule="CC(C)=CCc1c(O)ccc2c1OC(c1ccccc1)CC2=O (racemic) [(±)-7-Hydro-xy-8-C-prenyl flavanone]" value_measured=65
molecule="C=CC(C)(C)c1c(O)cc2oc3c(O)c(O)cc(CC=C(C)C)c3c(=O)c2c1O [Alvaxanthone (15), Alvaxanthone]" value_measured=18
molecule="O=C(OCC1=C[C@@H](O)[C@@H]2C=CO[C@@H](O[C@@H]3O[C@H](CO)[C@@H](O)[C@H](O)[C@H]3O)[C@H]12)c1ccc(O)cc1 [Agnuside (8), Agnuside]" value_measured=100
molecule="CC(=O)Oc1c(O)cc(-c2oc3cc(O)cc(O)c3c(=O)c2O)cc1O [Myricetin-4′-OAc (7), Myricetin-4′-OAc]" value_measured=69
molecule="COc1c(C2(O)COc3cc(O)cc(O)c3C2=O)ccc2c1C=CC(C)(C)O2 (centres unmarked) [Sophoronol (5), Sophoronol]" value_measured=77
molecule="O=C(CCc1ccc(O)cc1)c1c(O)cc(O)cc1O [Phloretin (4), Phloretin]" value_measured=82
molecule="O=C1c2c(O)cccc2C([C@@H]2O[C@H](CO)[C@@H](O)[C@H](O)[C@H]2O)c2cc(CO)cc(O)c21 (some centres unmarked) [Aloin (2), Aloin]" value_measured=83
